STUDY TARGET: primase (UL5/UL8/UL52) (Human herpesvirus 1, UniProt P10236)
Sequence (P10189 whole entry): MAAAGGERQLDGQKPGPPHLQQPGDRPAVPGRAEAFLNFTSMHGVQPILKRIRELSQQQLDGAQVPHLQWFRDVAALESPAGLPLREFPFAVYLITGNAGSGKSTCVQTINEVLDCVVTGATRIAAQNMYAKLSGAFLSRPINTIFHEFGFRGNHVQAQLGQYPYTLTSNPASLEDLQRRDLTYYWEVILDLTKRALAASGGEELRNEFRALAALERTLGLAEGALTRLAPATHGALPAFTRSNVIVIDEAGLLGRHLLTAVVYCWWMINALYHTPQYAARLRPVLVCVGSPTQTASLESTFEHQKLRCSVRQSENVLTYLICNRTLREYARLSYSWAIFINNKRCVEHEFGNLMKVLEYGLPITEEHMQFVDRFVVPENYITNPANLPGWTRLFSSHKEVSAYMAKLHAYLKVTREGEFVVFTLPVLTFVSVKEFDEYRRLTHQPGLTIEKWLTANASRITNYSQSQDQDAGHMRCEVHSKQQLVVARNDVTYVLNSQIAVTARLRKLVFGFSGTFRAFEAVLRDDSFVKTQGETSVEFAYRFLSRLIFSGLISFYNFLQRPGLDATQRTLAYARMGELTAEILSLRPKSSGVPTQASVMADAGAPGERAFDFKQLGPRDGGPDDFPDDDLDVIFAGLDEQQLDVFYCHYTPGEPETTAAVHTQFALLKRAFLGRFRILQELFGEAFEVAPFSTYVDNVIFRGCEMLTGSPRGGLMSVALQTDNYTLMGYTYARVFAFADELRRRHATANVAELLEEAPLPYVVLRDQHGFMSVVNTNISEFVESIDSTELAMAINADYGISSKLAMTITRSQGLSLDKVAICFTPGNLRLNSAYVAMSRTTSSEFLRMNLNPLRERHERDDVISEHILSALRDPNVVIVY
Sequence (P10192 whole entry, further chain): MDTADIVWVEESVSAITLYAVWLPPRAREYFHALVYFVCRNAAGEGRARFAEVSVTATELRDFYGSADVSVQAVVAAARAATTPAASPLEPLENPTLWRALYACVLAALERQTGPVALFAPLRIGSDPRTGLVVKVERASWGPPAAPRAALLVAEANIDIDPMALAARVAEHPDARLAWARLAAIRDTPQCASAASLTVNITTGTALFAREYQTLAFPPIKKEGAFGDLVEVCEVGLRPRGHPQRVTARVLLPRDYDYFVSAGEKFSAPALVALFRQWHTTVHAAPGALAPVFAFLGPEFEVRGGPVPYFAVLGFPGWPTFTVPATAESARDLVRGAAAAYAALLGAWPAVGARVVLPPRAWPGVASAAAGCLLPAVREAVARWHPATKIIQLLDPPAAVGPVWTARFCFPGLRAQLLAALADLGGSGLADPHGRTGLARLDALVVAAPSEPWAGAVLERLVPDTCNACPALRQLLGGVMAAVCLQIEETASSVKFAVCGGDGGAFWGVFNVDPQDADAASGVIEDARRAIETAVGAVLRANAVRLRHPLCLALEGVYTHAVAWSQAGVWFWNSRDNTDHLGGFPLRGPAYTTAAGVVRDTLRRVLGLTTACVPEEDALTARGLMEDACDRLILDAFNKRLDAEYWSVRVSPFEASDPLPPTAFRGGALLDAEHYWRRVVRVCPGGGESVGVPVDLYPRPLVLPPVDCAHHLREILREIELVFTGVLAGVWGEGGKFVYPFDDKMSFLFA
Sequence (P10236 whole entry): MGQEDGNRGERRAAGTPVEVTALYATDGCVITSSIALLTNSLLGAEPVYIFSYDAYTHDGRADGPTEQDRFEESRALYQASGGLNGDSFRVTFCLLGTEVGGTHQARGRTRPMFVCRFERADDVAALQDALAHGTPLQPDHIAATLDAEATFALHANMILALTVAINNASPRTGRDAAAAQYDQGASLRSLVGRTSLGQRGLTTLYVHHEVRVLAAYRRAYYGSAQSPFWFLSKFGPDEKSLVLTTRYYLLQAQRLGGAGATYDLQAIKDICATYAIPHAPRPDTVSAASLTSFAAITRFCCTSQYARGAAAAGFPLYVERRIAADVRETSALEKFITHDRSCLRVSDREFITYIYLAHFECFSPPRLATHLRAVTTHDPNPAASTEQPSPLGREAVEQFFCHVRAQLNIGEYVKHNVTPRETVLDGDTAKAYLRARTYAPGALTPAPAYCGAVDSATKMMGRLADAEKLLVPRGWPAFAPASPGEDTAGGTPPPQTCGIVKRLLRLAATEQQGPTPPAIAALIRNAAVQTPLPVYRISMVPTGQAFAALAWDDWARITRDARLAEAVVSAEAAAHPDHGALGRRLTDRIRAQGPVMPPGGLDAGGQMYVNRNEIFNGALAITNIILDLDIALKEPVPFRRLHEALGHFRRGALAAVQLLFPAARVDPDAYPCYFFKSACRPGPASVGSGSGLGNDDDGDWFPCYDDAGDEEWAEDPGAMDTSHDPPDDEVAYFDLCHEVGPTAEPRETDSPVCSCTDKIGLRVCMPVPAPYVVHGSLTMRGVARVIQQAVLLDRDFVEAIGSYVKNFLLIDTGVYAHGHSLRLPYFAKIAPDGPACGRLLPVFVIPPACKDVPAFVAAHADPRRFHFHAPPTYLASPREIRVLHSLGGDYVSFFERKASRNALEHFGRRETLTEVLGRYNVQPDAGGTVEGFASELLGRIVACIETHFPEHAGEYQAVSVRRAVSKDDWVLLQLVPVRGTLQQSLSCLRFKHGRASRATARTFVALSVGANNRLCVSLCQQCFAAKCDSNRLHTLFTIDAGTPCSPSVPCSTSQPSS
EXPERIMENT SUMMARY: Polymerization of nucleoside triphosphates onto a RNA primer:DNA template
Type: biochemical, herpes simplex virus I
STATED CONDITIONS: primer:template with next correct NTP: DNAT (ATP), DNAC (GTP), DNAG (CTP)
Measured Km of individual entries

| COMPOUND | Km / µM |
| --- | --- |
| Nc1ccn([C@@H]2O[C@H](COP(=O)(O)OP(=O)(O)OP(=O)(O)O)[C@@H](O)[C@@H]2O)c(=O)n1 [AraCTP, arabinofuranosylcytosine triphosphate] | 360 |
| Nc1ncnc2c1ncn2[C@@H]1O[C@H](COP(=O)(O)OP(=O)(O)OP(=O)(O)O)[C@@H](O)[C@@H]1O [AraATP, arabionfuranosyladenine triphosphate] | 190 |
| Nc1ccn([C@H]2C[C@H](O)[C@@H](COP(=O)(O)OP(=O)(O)OP(=O)(O)O)O2)c(=O)n1 | 640 |
| Nc1ccn([C@@H]2O[C@H](COP(=O)(O)OP(=O)(O)OP(=O)(O)O)[C@@H](O)[C@H]2O)c(=O)n1 | 1100 |
| Nc1nc2c(ncn2[C@@H]2O[C@H](COP(=O)(O)OP(=O)(O)OP(=O)(O)O)[C@@H](O)[C@H]2O)c(=O)[nH]1 | 230 |
| Nc1ncnc2c1ncn2[C@H]1C[C@H](O)[C@@H](COP(=O)(O)OP(=O)(O)OP(=O)(O)O)O1 | 770 |

====

STUDY TARGET: primase (UL5/UL8/UL52) (Human herpesvirus 1, UniProt P10236)
EXPERIMENT SUMMARY: Inhibition of NTP polymerization onto primer:templates
Assay type: biochemical
pIC50: −log10 of the molar value.
QUANTITY KIND: pIC50

| COMPOUND | QUANTITY KIND | OBSERVED VALUE |
| --- | --- | --- |
| Nc1nc2c(ncn2COCCOP(=O)(O)OP(=O)(O)OP(=O)(O)O)c(=O)[nH]1 [ACVTP, acyclovir triphosphate] | pIC50 | 2.49 |

====

STUDY TARGET: primase (UL5/UL8/UL52) (Human herpesvirus 1)
EXPERIMENT SUMMARY: Incorporation of nucleotides as the second nucleotide of the primer
Assay type: biochemical, herpes simplex virus I
QUANTITY KIND: VMax

| COMPOUND | OBSERVED VALUE |
| --- | --- |
| Nc1ncnc2c1ncn2[C@H]1C[C@H](O)[C@@H](COP(=O)(O)OP(=O)(O)OP(=O)(O)O)O1 [2′-dATP] | >10 pmol/min |
| Nc1nc2c(ncn2[C@@H]2O[C@H](COP(=O)(O)OP(=O)(O)OP(=O)(O)O)[C@@H](O)[C@@H]2O)c(=O)[nH]1 [AraGTP, arabinofuranosylguanine triphosphate] | 4.1 ± 0.3 pmol/min |
| Nc1nc2c(ncn2[C@@H]2O[C@H](COP(=O)(O)OP(=O)(O)OP(=O)(O)O)[C@@H](O)[C@H]2O)c(=O)[nH]1 [GTP] | 9.5 ± 1.3 pmol/min |

====

Recorded VMax values for a group of molecules are listed next.
STUDY TARGET: primase (UL5/UL8/UL52) (Human herpesvirus 1, UniProt P10236)
EXPERIMENT SUMMARY: Incorporation of nucleotides as the second nucleotide of the primer
Assay type: biochemical, herpes simplex virus I

| MOLECULE | VMax, pmol/min |
| --- | --- |
| Nc1ncnc2c1ncn2[C@@H]1O[C@H](COP(=O)(O)OP(=O)(O)OP(=O)(O)O)[C@@H](O)[C@@H]1O [AraATP, arabionfuranosyladenine triphosphate] | 1.0 |
| Nc1nc2c(ncn2[C@H]2C[C@H](O)[C@@H](COP(=O)(O)OP(=O)(O)OP(=O)(O)O)O2)c(=O)[nH]1 [2′-dGTP] | 5.3 |
| Nc1ncnc2c1ncn2[C@@H]1O[C@H](COP(=O)(O)OP(=O)(O)OP(=O)(O)O)[C@@H](O)[C@H]1O [ATP] | 5.1 |
